Values from patent US11285218B2

biological target: BRD9:CRBN-DDB1 protein complex (Homo sapiens, UniProt Q96SW2+Q9H8M2); test: BRD9:CRBN-DDB1 dimerization assay (luminescence); conditions: luminescence detection of dimerization assay
Sequence (Q9H8M2 136-240 limits assumed): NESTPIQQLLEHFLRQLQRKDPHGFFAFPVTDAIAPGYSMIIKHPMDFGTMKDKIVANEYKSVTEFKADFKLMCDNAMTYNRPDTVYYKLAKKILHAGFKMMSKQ
Sequence (Q96SW2 whole entry): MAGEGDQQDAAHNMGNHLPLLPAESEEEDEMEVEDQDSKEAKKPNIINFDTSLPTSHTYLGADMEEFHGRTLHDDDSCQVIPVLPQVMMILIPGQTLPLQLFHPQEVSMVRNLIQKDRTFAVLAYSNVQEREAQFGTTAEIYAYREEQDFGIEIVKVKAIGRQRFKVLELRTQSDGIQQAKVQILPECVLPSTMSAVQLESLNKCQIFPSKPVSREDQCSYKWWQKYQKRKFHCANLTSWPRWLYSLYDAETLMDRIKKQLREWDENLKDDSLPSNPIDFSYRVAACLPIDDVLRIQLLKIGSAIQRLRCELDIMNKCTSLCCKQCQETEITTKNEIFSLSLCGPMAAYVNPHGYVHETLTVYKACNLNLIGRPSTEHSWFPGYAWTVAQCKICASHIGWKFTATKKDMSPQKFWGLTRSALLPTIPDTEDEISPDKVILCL
Sequence (Q16531 whole entry partner): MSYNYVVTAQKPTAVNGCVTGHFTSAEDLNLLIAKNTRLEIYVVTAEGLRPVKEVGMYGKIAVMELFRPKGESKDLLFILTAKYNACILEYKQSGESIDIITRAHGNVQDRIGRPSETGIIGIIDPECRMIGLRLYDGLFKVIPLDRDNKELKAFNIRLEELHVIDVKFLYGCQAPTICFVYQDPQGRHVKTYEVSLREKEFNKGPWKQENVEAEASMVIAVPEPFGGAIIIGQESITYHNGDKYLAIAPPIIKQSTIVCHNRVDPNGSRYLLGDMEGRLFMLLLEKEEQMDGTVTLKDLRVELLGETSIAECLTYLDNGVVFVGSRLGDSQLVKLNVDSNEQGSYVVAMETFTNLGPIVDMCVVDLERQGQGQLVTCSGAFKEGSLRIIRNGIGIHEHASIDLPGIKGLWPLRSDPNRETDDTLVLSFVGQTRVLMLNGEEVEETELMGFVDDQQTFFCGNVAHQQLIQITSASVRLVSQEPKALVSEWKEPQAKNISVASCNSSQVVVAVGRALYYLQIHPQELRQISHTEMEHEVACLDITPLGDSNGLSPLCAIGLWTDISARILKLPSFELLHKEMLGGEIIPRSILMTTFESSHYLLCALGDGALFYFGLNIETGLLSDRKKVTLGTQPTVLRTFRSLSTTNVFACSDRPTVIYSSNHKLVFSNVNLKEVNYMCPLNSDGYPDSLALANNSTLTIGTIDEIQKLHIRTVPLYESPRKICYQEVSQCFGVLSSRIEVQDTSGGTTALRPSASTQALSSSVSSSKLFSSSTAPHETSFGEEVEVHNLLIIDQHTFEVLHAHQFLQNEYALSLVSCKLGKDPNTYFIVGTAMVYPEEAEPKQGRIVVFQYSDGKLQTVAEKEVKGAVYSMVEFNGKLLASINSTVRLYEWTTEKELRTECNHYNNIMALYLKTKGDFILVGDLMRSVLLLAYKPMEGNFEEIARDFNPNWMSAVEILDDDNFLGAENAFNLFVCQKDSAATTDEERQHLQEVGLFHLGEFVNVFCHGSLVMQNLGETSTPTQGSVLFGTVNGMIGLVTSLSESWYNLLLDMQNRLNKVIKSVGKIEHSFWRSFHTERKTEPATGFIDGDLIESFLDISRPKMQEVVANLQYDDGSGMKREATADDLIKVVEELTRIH
The threshold is 80000. Values of BRD9:CRB9-DDB1 AUC beneath it are tagged y; values meeting or exceeding it are tagged n.

# Compound, Assigned class
measured = [
    ("COc1cc(-c2cn(C)c(=O)c3cc(C(=N)NC4CCS(=O)(=O)CC4)sc23)ccc1OCC(=O)N1CCC(C2CCN(C(=O)COc3cccc4c3C(=O)N(C3CCC(=O)NC3=O)C4=O)CC2)CC1 (centres unmarked) [Compound I-7]", "n"),
    ("COc1cc(-c2cn(C)c(=O)c3cnccc23)cc(OC)c1CN(C)CC(=O)NCCCCCCNc1ccc2c(c1)C(=O)N(C1CCC(=O)NC1=O)C2=O (centres unmarked) [Compound I-12]", "y"),
    ("COc1cc(-c2cn(C)c(=O)c3cc(C(=N)NC4CCS(=O)(=O)CC4)sc23)ccc1OCC(=O)NCCCCCCCCNC(=O)COc1cccc2c1C(=O)N(C1CCC(=O)NC1=O)C2=O (centres unmarked) [Compound I-2]", "y"),
    ("COc1cc(-c2cn(C)c(=O)c3cnccc23)cc(OC)c1CN(C)CC(=O)NCCCCCCCCNc1cccc2c1C(=O)N(C1CCC(=O)NC1=O)C2=O (centres unmarked) [Compound I-15]", "n"),
]
